# measurementProtocol: recombinant barcode read abundance after kanamycin selection (control-corrected) (log10(CPM+1)); higher = more efficient recombination; sequences stand for … in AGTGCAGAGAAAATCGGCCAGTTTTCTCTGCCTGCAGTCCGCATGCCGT…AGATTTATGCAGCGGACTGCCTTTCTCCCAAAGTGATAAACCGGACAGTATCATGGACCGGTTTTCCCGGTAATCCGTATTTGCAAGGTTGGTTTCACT; site = the 11-nt target;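 further: IS621 recombinase and bridge RNA in Escherichia coli cells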
Measured recombinant barcode read abundance (log10) values are reported for all entries that follow.
assayReadout: recombinant barcode read abundance (log10)

{"columns": ["chain", "reportedResult"],
 "data": [
  ["TAGGTGACTTGGGTTCTAACCTGTTGCGG (site TAGGTGCCTCC)", 0.285],
  ["GAGCAGACTTGGGTTCTAACCTGTTGCCT (site GAGCTGACTAG)", 0.631],
  ["TAGGATTCTTGGGTTCTAACCTGTTGCGC (site ACCATACCTAT)", 0.114],
  ["CGCGATCCTTGGGTTCTAACCTGTTGCCT (site CGCGTTCCTAG)", 0.265],
  ["TAGACTACTTGGGTTCTAACCTGTTGCTG (site TAGACTACTGA)", 0.215]
]}
